Sourced from paper PMC3185571

- Tested system: neuraminidase of seasonal influenza A(H3N2) virus isolates (Influenza A virus, UniProt X2GK54)
- Format: biochemical
- Settings: read-out: IC50 Mean (±SD)
Endpoint name: pIC50
To interpret pIC50, take it as minus log10 of a concentration measured in moles per litre.

Any idea what pIC50 was measured for CCC(CC)[C@H](NC(C)=O)[C@@H]1[C@H](O)[C@@H](C(=O)O)C[C@H]1N=C(N)N [Peramivir, peramivir] ?
9.77

----------
- Tested system: neuraminidase of seasonal influenza A(H1N1) H275 wildtype virus isolates (Influenza A virus)
- Assay type: biochemical
- Settings: read-out: IC50 Range
Endpoint name: IC50

Any idea what IC50 was measured for CCC(CC)[C@H](NC(C)=O)[C@@H]1[C@H](O)[C@@H](C(=O)O)C[C@H]1N=C(N)N ?
0.05 to 0.17 nM
